Tested on: C2BBe1 (Colorectal Carcinoma)
Assay: combination Emax (second highest fraction inhibited in the dose matrix, 72 h); higher = more inhibition; extreme values may be limits of the assay
Reported combination Emax values for a set of molecules

molecule: CC1(C)CCC(CN2CCN(c3ccc(C(=O)NS(=O)(=O)c4ccc(NCC5CCOCC5)c([N+](=O)[O-])c4)c(Oc4cnc5[nH]ccc5c4)c3)CC2)=C(c2ccc(Cl)cc2)C1 [Venetoclax] + C=CCn1c(=O)c2cnc(Nc3ccc(N4CCN(C)CC4)cc3)nc2n1-c1cccc(C(C)(C)O)n1 [AZD1775] (first compound max 1 µM, partner max 1 µM)
combination Emax: 0.39

molecule: CN(C)CCCOc1ccc(-c2ccc3ncc4c(c3c2)n(C2CCOCC2)c(=O)n4C)cn1 [AZD0156] + CCN(CCO)CCCOc1ccc2c(Nc3cc(CC(=O)Nc4cccc(F)c4)[nH]n3)ncnc2c1 [AZD2811] (first compound max 1 µM, 7x7, partner max 1 µM)
combination Emax: 0.114

Per the record, Cc1c2c(nn1C)CSCc1cc(n(C)n1)CSc1cc(c3ccccc3c1)OCCCc1c(C(=O)O)n(C)c3c-2c(Cl)ccc13 [AZD5991] + Cc1cc2ncnn2cc1Nc1ncc2c(n1)n(C1CCOCC1)c(=O)n2C [AZD7648] (first compound max 1 µM, 7x7, partner max 10 µM) has combination Emax of 0.356
